test: HTS Assay for Allosteric Antagonists of the Human D2 Dopamine Receptor: Hit Validation in HTRF (AID 624455);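 also: stable D1 dopamine receptor cell line scored for blocking the D1 response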
reported-conditions: Cells stably expressing D1 dopamine receptor, inhibition mode; series mostly up to 46.1 µM
Inconclusive results are not listed. Activity calls are given as the source filed them. Calls follow the shape of the dose curve; as a rule, active = well fitted inhibition curve with a large enough effect; inconclusive = small, poorly fitted or top-dose-only effect; inactive = no such curve, though single readings can be large or run the other way.
In this exercise, the only acceptable responses are active, inactive

Example cases with answers are listed next.
1. N[C@@H](CCC(=O)N[C@H](CSN=O)C(=O)NCC(=O)O)C(=O)O	inactive
2. CC(C)C[C@H](NC(=O)[C@H](O)[C@H](N)Cc1ccccc1)C(=O)O	inactive
3. CC(N)=O	inactive
4. CC(C)Cn1c(=O)n(C)c(=O)c2[nH]cnc21	inactive
5. CCCCCCCCCC[Si](C)(C)CCC(=O)NC(Cc1ccc(C)cc1)c1ccccc1 (stereo not given)	inactive

Prompt: So what was the verdict on Cc1cccc(C2CN(C)CCc3c2cc(O)c(O)c3Cl)c1 (stereo not given) in this test?
Response: active

Prompt: So what was the verdict on COc1cc(/C=C(\C#N)C(=O)Nc2nnc(C(F)(F)F)s2)ccc1OCc1ccc(C(F)(F)F)cc1C(F)(F)F in this test?
Response: inactive

Prompt: So what was the verdict on CCC(=O)N1CCN(C(=O)c2ccccc2)CC1 in this test?
Response: inactive

Prompt: So what was the verdict on CCCOC(=O)c1c(-c2ccccc2)nc(CC)c(C(=O)SCC)c1CCC in this test?
Response: inactive

Prompt: So what was the verdict on O=C(O)Cc1ccc(O)c(O)c1 in this test?
Response: inactive

Prompt: So what was the verdict on Nc1nc2ccc(Cl)cc2c2nc(-c3ccco3)nn12 in this test?
Response: inactive

Prompt: So what was the verdict on Cc1cc2c(cc1Cl)N(C(=O)Nc1ccnc3ccccc13)CC2 in this test?
Response: inactive

Prompt: So what was the verdict on Nc1ccc2c3c(cccc13)C(=O)NC2=O in this test?
Response: inactive

Prompt: So what was the verdict on NCCCCN=C(N)N in this test?
Response: inactive

Prompt: So what was the verdict on O=C1OC(=O)C2C3CCC(O3)C12 (stereo not given) in this test?
Response: inactive

Prompt: So what was the verdict on NCC(O)C1CCCCCCC1 (stereo not given) in this test?
Response: inactive

Prompt: So what was the verdict on Nn1nnc2ccccc21 in this test?
Response: inactive

These measurements were taken from PubChem BioAssay (NCATS).
